Every entry's value here was drawn from PubChem BioAssay (NCI).

Tested on: RPMI-8226 leukemia
Assay: NCI-60 one-dose screen, 48 h
Conditions: 10 µM unless noted
This is part of a sample that, as a whole, favours compounds with a hit. Of some 83,000 tested, about 20% had one in any assay. Active and inactive are the calls of the source. Rule for the calls: active = growth percent below 10; inactive = the rest.
Classes to choose from: yes for active, no for inactive

Look over these answered cases.
{"compound": "Cc1cc(C)c([I+]c2c(C)cc(C)cc2C)c(C)c1", "category_label": "yes"}
{"compound": "O=C/C=C/c1ccc([N+](=O)[O-])cc1", "category_label": "no"}
{"compound": "Oc1ccccc1N=Cc1ccccc1", "category_label": "no"}
{"compound": "Nc1ccc(-c2ccc(N)c(S(=O)(=O)O)c2)cc1S(=O)(=O)O", "category_label": "no"}
{"compound": "CCCCCCCCCCCC(=O)OC(C)C(=O)NCCCC (stereo unspecified)", "category_label": "no"}

Problem: Which outcome did this test record for the compound CC(C)=C1C=C2CC[C@@H]3[C@](C)(CCC[C@@]3(C)C(=O)O)[C@H]2CC1 ?
Solution: no

----------
Test system: OVCAR-5 ovarian
Experiment: NCI-60 one-dose screen, 48 h (100 = growth as untreated, 0 = no growth, -100 = all killed)
Details: 10 µM unless noted
The panel holds about 83,000 compounds, 20% with a hit somewhere; the sample as a whole holds those more often.
property_measured: growth (%)
Answer with a number only, understood to be in %.

Sample records with growth:
{"molecule": "O=C(CBr)c1ccc(OC(=O)c2ccccc2)cc1", "unit_abbreviation": "%", "growth": 102}
{"molecule": "S=C(SSC(=S)N1CCOCC1)N1CCOCC1", "unit_abbreviation": "%", "growth": 106}

Attention now shifts to the item below.
Problem: Specify measured growth for c1ccc(C2NCCNC2c2ccccc2)cc1 (stereo not drawn) .
Solution: 99.3

----------
growth listing for selected molecules.
Tested on: SR leukemia
Assay: NCI-60 one-dose screen, 48 h (100 = growth as untreated, 0 = no growth, -100 = all killed)
Conditions: 10 µM unless noted
This is part of a sample that, as a whole, favours compounds with a hit. Of some 83,000 tested, about 20% had one in any assay.
API: value field is a number in %; no unit string.

Field: example entries. Status: answers known.
{"chemical_string": "O=C(NNc1ccccc1)OCc1ccccc1", "unit_abbreviation": "%", "growth": 47.1}
{"chemical_string": "CC1(C)CCCC2=C1C(=O)N(SC(Cl)(Cl)Cl)C2=O", "unit_abbreviation": "%", "growth": 77.2}

Now let's try a different one.
Problem: Return reported growth. Input molecule: Cc1ccc(Nc2ccc(O)c3c2C(=O)c2c(O)ccc(Nc4ccc(C)cc4)c2C3=O)cc1
Solution: 108

----------
System: NCI-H23 lung
Assay: NCI-60 one-dose screen, 48 h (100 = growth as untreated, 0 = no growth, -100 = all killed)
Conditions: 10 µM unless noted
The panel holds about 83,000 compounds, 20% with a hit somewhere; the sample as a whole holds those more often.
// reported growth for each item listed
Only the number, expressed in %, is required.

Examples from the recorded data:
{"compound": "O=C(/C=C/C(Cl)(Cl)Cl)Nc1ccc(Cl)cc1", "unit_abbreviation": "%", "growth": 81.5}
{"compound": "c1csc(-c2[nH]nc3c2CCc2ccccc2-3)c1", "unit_abbreviation": "%", "growth": 95.8}
{"compound": "CC1C(c2ccccc2)OCCN1C(=S)Nc1ccc(S(=O)(=O)N2CCCCC2)cc1 (centres undefined)", "unit_abbreviation": "%", "growth": 98.6}

Turning to the following compound.
Problem: Give the reported value of growth for this record: O=C(/C(Cl)=N/O)c1ccc(-c2ccccc2)cc1
Solution: 93.4
